# EXPERIMENTAL DETAILS: self-splicing fitness, log relative to wild type (ln ratio); higher = more splicing; Tetrahymena group I intron in knt gene, E. coli kanamycin selection, DiMSum; sequences stand for … in CUCUCU…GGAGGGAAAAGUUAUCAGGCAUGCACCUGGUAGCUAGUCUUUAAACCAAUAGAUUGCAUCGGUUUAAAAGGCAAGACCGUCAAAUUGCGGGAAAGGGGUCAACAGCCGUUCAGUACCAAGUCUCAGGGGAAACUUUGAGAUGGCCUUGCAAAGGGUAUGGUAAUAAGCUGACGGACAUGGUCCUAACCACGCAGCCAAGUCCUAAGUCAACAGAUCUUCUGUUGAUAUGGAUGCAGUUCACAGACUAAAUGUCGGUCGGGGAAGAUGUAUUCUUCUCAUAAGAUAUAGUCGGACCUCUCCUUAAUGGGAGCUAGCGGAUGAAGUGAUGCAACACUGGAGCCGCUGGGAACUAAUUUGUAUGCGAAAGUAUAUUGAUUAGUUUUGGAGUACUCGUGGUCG;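 further: selection with 25 µg/mL kanamycin versus none on LB agar overnight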
# CONDITION INFO: 37 °C
Classify as follows. Reported self-splicing fitness (ln) greater than or equal to -1: T. Reported self-splicing fitness (ln) below: F.

• CCAGAGCAAUAUUACGUCGG = F
• CUUGAGCAAUAUUACGCUUA = F
• ACAUAGCAAUAUUACGUGAG = T
• UUCUAGCAAUAUUACGACAA = T
• AACUAGCAAUAUUACGCAUC = F
• UGAAAGCAAUAUUACGUAGG = T
• CGUAAGCAAUAUUACGGCAG = T
• UGUUAGCAAUAUUACGGGCG = T
• GUUGAGCAAUAUUACGUGGG = F
• UCUUAGCAAUAUUACGUCAA = F
• ACCGAGCAAUAUUACGGCUA = T
• GUGAAGCAAUAUUACGAUCA = T
• GUUUAGCAAUAUUACGAACG = F
• UACGAGCAAUAUUACGGGCU = F
• CGCAAGCAAUAUUACGGAUG = T
• CCGCAGCAAUAUUACGAUAA = F
• ACCUAGCAAUAUUACGUUCA = F
• GCUCAGCAAUAUUACGUAUA = T
• GACAAGCAAUAUUACGUAGC = T
• CGCUAGCAAUAUUACGCAAG = F
• UGAAAGCAAUAUUACGCACA = T
• CAACAGCAAUAUUACGCUCA = F
• GACCAGCAAUAUUACGCCGG = F
• UGCCAGCAAUAUUACGGAUU = T
• CUACAGCAAUAUUACGAUAG = F
• CGGAAGCAAUAUUACGCGUG = T
• GGACAGCAAUAUUACGUAUG = T
• CCACAGCAAUAUUACGUCCC = F
• UAGAAGCAAUAUUACGUAGG = F
• AGGUAGCAAUAUUACGGGUC = F
• GGACAGCAAUAUUACGUCUC = F
• GCACAGCAAUAUUACGUCUC = T
• AAAAAGCAAUAUUACGCUGA = F
• ACGCAGCAAUAUUACGACGU = T
